# Tested on: compound 48/80-induced lethality
# method: Protection of rats from compound 48/80-induced lethality
# Format: in vivo, rat (male, inbred Wistar strain)
# assay.context: Rattus norvegicus; rats treated subcutaneously or orally 1 hour before compound 48/80 0.5 mg/kg intravenously; 50% of animals protected; survival after 4 hours; read-out: Compound 48/80 lethality test in rats-ED50
# Description: Protection of rats from compound […] lethality Compound 48/80, a mixture of oligomers obtained by condensation of 4-methoxy-N-methylbenzeneethanamine and formaldehyde has been described as a potent histamine releasing agent (Int. Arch. Allergy, 13, 336 (1958)). The protection from compound 48/80-induced lethal circulatory collapse appears to be a simple way of evaluating quantitatively the antihistaminic activity of test compounds. […]

{"compound": "CCOCCn1c(NC2CCN(CCCC(C)=O)CC2)nc2cccnc21 [Compound 61]", "ED50 (mg/kg)": 0.04}
{"compound": "CCOCCn1c(CC2CCN(CCNC(=O)c3nccs3)CC2)nc2cccnc21 [Compound 144]", "ED50 (mg/kg)": 0.02}
{"compound": "CCOCCn1c(CC2CCN(CCc3ccccn3)CC2)nc2cccnc21 [Compound 152]", "ED50 (mg/kg)": 0.005}
{"compound": "CCOCCn1c(CC2CCN(CCOc3ncccn3)CC2)nc2cccnc21 [Compound 134]", "ED50 (mg/kg)": 0.005}
{"compound": "CCOCCn1c(CC2CCN(CCc3c(C)nc4ccccn4c3=O)CC2)nc2cccnc21 [Compound 62]", "ED50 (mg/kg)": 0.04}
{"compound": "CCOCCn1c(NC2CCN(CCc3cc4ccccc4oc3=O)CC2)nc2cccnc21 [Compound 82]", "ED50 (mg/kg)": 0.04}
{"compound": "CCOCCn1c(NC2CCN(CCc3ccc(OC)cc3)CC2)nc2cccnc21 [Compound 45]", "ED50 (mg/kg)": 0.02}
{"compound": "CCOCCn1c(NC2CCN(C)CC2)nc2cccnc21 [Compound 108]", "ED50 (mg/kg)": 0.04}
{"compound": "CCOCCn1c(NC2CCN(CCc3scnc3C)CC2)nc2cccnc21 [Compound 67]", "ED50 (mg/kg)": 0.02}

====

Form field: ED50 (one value per entry).
# Tested on: compound 48/80-induced lethality
# method: Protection of rats from compound 48/80-induced lethality
# Assay type: in vivo, rat (male, inbred Wistar strain)
# assay.context: Rattus norvegicus; rats treated subcutaneously or orally 1 hour before compound 48/80 0.5 mg/kg intravenously; 50% of animals protected; survival after 4 hours; read-out: Compound 48/80 lethality test in rats-ED50

{"chemical.structure": "CCOCCn1c(CC2CCN(CCNc3ncccn3)CC2)nc2cccnc21", "ED50, mg/kg": 0.02}
{"chemical.structure": "CCOCCn1c(NC2CCN(CCNc3ncccn3)CC2)nc2cccnc21", "ED50, mg/kg": 0.01}
{"chemical.structure": "CCOCCn1c(CC2CCN(C)CC2)nc2cccnc21", "ED50, mg/kg": 0.04}
{"chemical.structure": "CCOCCn1c(NC2CCN(CC)CC2)nc2cccnc21", "ED50, mg/kg": 0.04}
{"chemical.structure": "CCOCCn1c(CC2CCN(CCc3ccc(OC)cc3)CC2)nc2cccnc21", "ED50, mg/kg": 0.02}

Where do the numbers come from? From patent US4943580A.
